The entries below come with measured Activity values attached.
test system: Trypanothione reductase (Trypanosoma brucei brucei)
assay overview: Inhibition of Trypanosoma brucei TR using 40 to 100 uM trypanothione disulfide assessed as remaining activity at 5 uM
Please respond with the number in % and leave the unit unwritten.

// worked examples, Activity included
> print(dat)
                            compound.string                               test.system  observed.result
1  NCCCCCNCc1ccc(OC2=CC(=O)c3cc4ccccc4cc3C2=O)cc1  Trypanothione reductase (Trypanosoma brucei brucei)               36
2          O=C1C=C(Oc2ccccc2)C(=O)c2ccccc21  Trypanothione reductase (Trypanosoma brucei brucei)               51
3  NCCCNCCCCNCc1ccc(OC2=CC(=O)c3cc4ccccc4cc3C2=O)cc1  Trypanothione reductase (Trypanosoma brucei brucei)               36
4  NCCCCNCc1ccc(OC2=CC(=O)c3cc4ccccc4cc3C2=O)cc1  Trypanothione reductase (Trypanosoma brucei brucei)               36
5  NCCCNCCCCNCCCNCc1ccc(OC2=CC(=O)c3ccccc3C2=O)cc1  Trypanothione reductase (Trypanosoma brucei brucei)               36
6    O=C1C=C(Oc2ccccc2)C(=O)c2cc3ccccc3cc21  Trypanothione reductase (Trypanosoma brucei brucei)               51

Could you now look at the following compound, please?
Look up Activity: "NCCCCCNCc1ccc(OC2=CC(=O)c3ccccc3C2=O)cc1" 36

----------
assay overview: Selectivity index, ratio of IC50 for rat L6 cells to IC50 for promastigote form of Leishmania donovani strain MHOM/SD/00/1S-2D
Assay type: toxicity, cell-based
measurement conditions: read-out: Ratio IC50
measured endpoint: selectivity ratio

Examples from the recorded data:
> print(dat)
                            compound.string  measured.endpoint  observed.result
1  NCCCNCCCCNCc1ccc(OC2=CC(=O)c3ccccc3C2=O)cc1  selectivity ratio           < 0.31
2  NCCCNCCCCNCCCNCc1ccc(OC2=CC(=O)c3ccccc3C2=O)cc1  selectivity ratio           < 0.23

Now, please, on to the next compound.
What selectivity ratio value was documented for this compound, "NCCCNCCCNCCCNCc1ccc(OC2=CC(=O)c3ccccc3C2=O)cc1" ? < 0.21

----------
Measured selectivity ratio, listed per entry for reference.
assay overview: Selectivity index, ratio of IC50 for rat L6 cells to IC50 for axenic amastigote form of Leishmania donovani strain MHOM-ET-67/L82
Type: toxicity, cell-based
measurement conditions: read-out: Ratio IC50
Respond numerically, and do not add a unit to the figure.

Below are worked cases with known answers.
> print(dat)
                            compound.string  measured.endpoint  observed.result
1          O=C1C=C(Oc2ccccc2)C(=O)c2ccccc21  selectivity ratio              4.7
2  NCCCCCNCc1ccc(OC2=CC(=O)c3ccccc3C2=O)cc1  selectivity ratio             1.37

Entry "O=C1C=C(Oc2ccccc2)C(=O)c2cc3ccccc3cc21" : reported selectivity ratio = ? 2.91
